// provenance: ChEMBL document CHEMBL1764999

# Target under test: Solute carrier family 15 member 1 (Homo sapiens) (UniProt P46059)
# Sequence (whole entry): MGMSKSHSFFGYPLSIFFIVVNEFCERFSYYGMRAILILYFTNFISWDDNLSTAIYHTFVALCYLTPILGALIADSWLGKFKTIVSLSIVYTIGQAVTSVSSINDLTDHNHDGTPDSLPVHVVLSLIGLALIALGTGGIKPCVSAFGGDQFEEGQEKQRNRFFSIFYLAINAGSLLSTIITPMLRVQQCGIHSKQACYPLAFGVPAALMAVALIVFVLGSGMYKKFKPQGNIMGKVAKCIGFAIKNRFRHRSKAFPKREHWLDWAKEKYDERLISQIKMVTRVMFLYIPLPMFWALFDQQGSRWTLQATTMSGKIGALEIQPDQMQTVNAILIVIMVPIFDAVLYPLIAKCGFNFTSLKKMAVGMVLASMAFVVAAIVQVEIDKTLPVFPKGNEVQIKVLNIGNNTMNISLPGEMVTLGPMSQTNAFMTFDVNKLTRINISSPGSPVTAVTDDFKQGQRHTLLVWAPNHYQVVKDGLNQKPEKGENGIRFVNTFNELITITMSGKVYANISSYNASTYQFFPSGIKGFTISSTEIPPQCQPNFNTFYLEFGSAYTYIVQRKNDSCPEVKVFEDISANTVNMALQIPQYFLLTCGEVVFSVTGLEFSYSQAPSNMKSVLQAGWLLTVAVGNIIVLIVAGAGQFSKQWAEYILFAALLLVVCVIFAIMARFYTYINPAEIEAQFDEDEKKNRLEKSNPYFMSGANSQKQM
# Experiment notes: Inhibition of human PEPT1 expressed in Xenopus laevis oocytes assessed as Inhibition of glycylsarcosine-induced transport-associated current at 0.25 to 1 mM at -60 mV membrane potential by two-electrode voltage clamp method
# Type: cell-based
# Test settings: Oocyte
Square brackets hold non-standard residues; d marks the D form. Peptide text beside a SMILES is read from it. * marks the point of attachment. Bip = N[C@@H](Cc1ccc(-c2ccccc2)cc1)C(=O)O; NHBn = c1ccc(CN*)cc1
Measured quantity: inhibition

Qu. Recorded inhibition for N=C(N)NCCC[C@H](NC(=O)[C@H](Cc1ccc(-c2ccccc2)cc1)NC(=O)[C@@H](N)CCCNC(=N)N)C(N)=O (H-Arg-[Bip]-Arg-NH2) with Solute carrier family 15 member 1 (Homo sapiens) (UniProt P46059), please?
Ans. -3.3%

Qu. Please give the result for NC(=O)[C@H](CCCN=C(N)N)NC(=O)[C@H](Cc1c[nH]c2ccccc12)NC(=O)[C@@H](N)CCCN=C(N)N (H-Arg-Trp-Arg-NH2) too.
Ans. 15.1%

Qu. Please give the result for `CC(C)(C)c1cc(C(C)(C)C)c2[nH]c(C(C)(C)C)c(C[C@H](N)C(=O)N[C@@H](CCCNC(=N)N)C(N)=O)c2c1` too.
Ans. 20.3%

Qu. Please give the result for COC(=O)[C@H](CCCN=C(N)N)NC(=O)[C@@H](N)Cc1ccc(-c2ccccc2)cc1 (H-[Bip]-Arg-OMe) too.
Ans. 10.4%

Qu. Please give the result for N=C(N)NCCC[C@H](NC(=O)[C@H](Cc1c[nH]c2ccccc12)NC(=O)[C@@H](N)CCCNC(=N)N)C(=O)NCc1ccccc1 (H-Arg-Trp-Arg-NHBn) too.
Ans. 87.6%
